Entries and their Relative activity
Tested on: (R)-2,3-butanediol dehydrogenase
procedure.details: Substrate specificity of purified (R)-2,3-butanediol dehydrogenase (dehydrogenation activity)
Format: biochemical, Pichia angusta
assay.setup: substrate 500 mM; glycerol dehydrogenation activity with NAD+ as coenzyme taken as 100; ND: not detectable
Report the figure in % without appending any unit label.

compound	study.target	Relative activity / %
CC(O)C(C)O (centres unmarked)	(R)-2,3-butanediol dehydrogenase	3030

INPUT: Relative activity lookup needed for CC(O)CCO (centres unmarked) , thanks.
OUTPUT: 58

INPUT: Which Relative activity is reported for this compound? OCC(O)CO
OUTPUT: 100

INPUT: Form field: reported Relative activity of CCC(O)CO (centres unmarked)
OUTPUT: 130

INPUT: Item CC(O)CO (centres unmarked) has what recorded Relative activity?
OUTPUT: 700

* * *

Tested on: (R)-2,3-butanediol dehydrogenase
procedure.details: Behavior of (R)-2,3-butanediol dehydrogenase to reagents (residual glycerol dehydrogenase activity)
Type: biochemical, Pichia angusta
assay.setup: reagent 1 mM, 30° C. for 10 minutes; glycerol dehydrogenase activity
measure.name: Residual activity (%)
Numbers only here, please. The scale is %.

Worked set:
compound	quantity.unit	Residual activity
O=C(O)c1cc(SSc2ccc([N+](=O)[O-])c(C(=O)O)c2)ccc1[N+](=O)[O-] [DTNB, 5,5′-dithiobis (2-nitrobenzoic acid)]	%	59
[Cl][Fe]([Cl])[Cl] [iron (III) chloride]	%	0
[Cl][Co][Cl] [cobalt chloride]	%	102
[Cl][Cu][Cl] [copper chloride]	%	0

INPUT: Param item = [Cl][Hg][Cl] [mercury chloride] ; retrieve measured Residual activity.
OUTPUT: 0

INPUT: Need Residual activity of [Cl][Fe][Cl] [iron (II) chloride] , thanks.
OUTPUT: 163

INPUT: Query: Residual activity; subject: NNc1ccccc1 [Phenylhydrazine]
OUTPUT: 110

* * *

System: (R)-2,3-butanediol dehydrogenase
procedure.details: Behavior of (R)-2,3-butanediol dehydrogenase to reagents (residual glycerol dehydrogenase activity)
Type: biochemical, Pichia angusta
measure.name: Residual activity (%)
State the answer as a number, implicitly in %.

Guide cases for Residual activity, answers given:
molecule	quantity.unit	Residual activity
[Cl-].[Cl-].[Mg+2] [magnesium chloride]	%	105
[Cl][Ni][Cl] [nickel chloride]	%	99
[Cl-].[Cl-].[Zn+2] [zinc chloride]	%	113
O=C(O)CI	%	91
[Ba+2].[Cl-].[Cl-] [barium chloride]	%	112

Note: attention shifts to another entry.
INPUT: Given the entry [Ca+2].[Cl-].[Cl-] [calcium chloride] , what Residual activity was observed with (R)-2,3-butanediol dehydrogenase?
OUTPUT: 105

* * *

Each record here notes measured HB101 (pSE-PAD1) Relative activity.
System: recombinant (R)-2,3-butanediol dehydrogenase, HB101 (pSE-PAD1) cell extract
procedure.details: Substrate specificity of recombinant enzyme, oxidation reaction
Type: biochemical, Pichia angusta
assay.setup: substrate 50 mM, glycerol = 100%
Unit % implied. Number only.

molecule	recorded.measurement
C[C@H](O)CCO [(S)-1,3-butanediol]	18.3
OC[C@H](O)CCl [(S)-3-chloro-1,2-propanediol]	24.8
CC(O)C(C)O (stereo not drawn) [Meso-2,3-butanediol]	509

INPUT: State the recorded HB101 (pSE-PAD1) Relative activity for this entry: C[C@@H](O)CO [(R)-1,2-propanediol]
OUTPUT: 473

INPUT: Can you share its HB101 (pSE-PAD1) Relative activity? I mean this molecule: C[C@H](O)CO [(S)-1,2-propanediol]
OUTPUT: 108
